Tested on: PfAP2-I AP2 domain 3 (GST-tagged)
Assay: gcPBM binding intensity (ln(normalized median fluorescence intensity)); higher = stronger DNA binding
In all, about 25,000 sequences were measured (“ln(normalized median fluorescence intensity)”: median about 7.9, highest 2% from about 11 on). Only a selection was taken, and the highest values are over-represented in it overall.
The label depends only on gcPBM binding intensity (ln): true (1) if it is at least 10, false (0) if it is smaller.

Reference set, count: 9
AATATTGTATATAATAAACACACAATATTAAAAATA [CACACA_site8262] ... false (0)
ATTATTATATAGTGTGCATGCAATATTAATAAAACC [TGCATGCA_site245] ... false (0)
GTTATAATTGAACTAGTGCATAAATATATTTTAATT [GTGCAC_site9851] ... true (1)
TACATCATCTATAAGGTGCATTTTAGTTCTATTAAA ... true (1)
TTATATTATATATATAGTACACATGTAATATTTCAA [XGTACX_site1791] ... false (0)
TCTATTTTTTATATGGTGCATTGTTCTTATTAATAT [GTGCAC_site9392] ... true (1)
TAATATATATATATGGTGCATTTAATTTATATATAA ... true (1)
ATTGATTATTTTCTAGTGCATAAAATAATTTTTTTT ... true (1)
TATTGTATATAATAAACACACAATATTAAAAATATA [CACACA_site1057] ... false (0)

Inquiry: Form field: gcPBM binding intensity (ln) at least 10? Entry: "TATTAATATATAGTAGTGCAATAAAGATATACTGAA"
Reply text: true (1)
